target: UniProt P11712; assay: Time dependent CYP inhibition assay, CYP 2C9; type: in vitro ADME
Sequence (P11712 whole entry): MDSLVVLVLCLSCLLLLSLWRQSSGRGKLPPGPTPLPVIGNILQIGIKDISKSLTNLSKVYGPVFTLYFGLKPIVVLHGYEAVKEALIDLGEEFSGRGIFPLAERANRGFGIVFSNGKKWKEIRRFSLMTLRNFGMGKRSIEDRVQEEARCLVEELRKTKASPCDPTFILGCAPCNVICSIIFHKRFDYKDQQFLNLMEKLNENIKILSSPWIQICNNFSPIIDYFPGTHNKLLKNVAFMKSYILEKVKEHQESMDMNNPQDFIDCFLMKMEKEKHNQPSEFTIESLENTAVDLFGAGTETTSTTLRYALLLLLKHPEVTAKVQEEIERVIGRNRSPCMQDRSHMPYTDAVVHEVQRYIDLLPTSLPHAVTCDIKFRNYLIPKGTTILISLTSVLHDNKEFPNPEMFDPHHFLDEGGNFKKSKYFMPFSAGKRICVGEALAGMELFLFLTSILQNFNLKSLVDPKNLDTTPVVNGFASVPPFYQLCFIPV
Where a name gives a salt, the structure may show the parent alone.
Recorded measurements of IC50, one per entry

Find the recorded IC50 belonging to "Cc1nc(Nc2ncc(N3CCN(C)[C@H](C)C3)c(Nc3cc(C)n(C)n3)n2)cc(C2CC2)c1F" and report it.
> 56 µM

Can you check CCc1cc(Nc2ncc(N3CCN[C@H](C)C3)c(Nc3cc(C)n(C)n3)n2)nc(C)c1F [Example 7, dihydrochloride] next?
> 56 µM

Can you check "Cc1nc(Nc2ncc(N3CCN[C@H](C)C3)c(Nc3cnn(C)n3)n2)cc(C2CC2)c1Cl" next?
> 56 µM

Reference source for all entries: patent US9957253B2
